Quick list: growth per entry.
# System: HS 578T breast
# Assay summary: NCI-60 one-dose screen, 48 h (100 = growth as untreated, 0 = no growth, -100 = all killed)
# Conditions used: 10 µM unless noted
About 83,000 compounds went through this panel and 20% of them were active in at least one assay; those are over-represented in the sample as a whole.
# number only, unit % dropped from output

[
  {
    "Molecule": "COc1c2occc2c(OC)c2c(=O)c(-c3cc(-c4ccc(F)cc4)c(C#N)c(N)n3)c(C)oc12",
    "Output unit": "%",
    "growth": 43.7
  },
  {
    "Molecule": "CCN(CC)CCOc1ccc(/C(=C(/C)c2ccccc2)c2ccc(OC(C)=O)cc2)cc1",
    "Output unit": "%",
    "growth": 95.2
  },
  {
    "Molecule": "COC(=O)C(Sc1ccc(Cl)cc1)C1SC(=S)N(Cc2ccccc2)C1=O (stereo not given)",
    "Output unit": "%",
    "growth": 106
  },
  {
    "Molecule": "O=[N+]([O-])c1ccc(/C=C/C2(CCl)OCCO2)cc1",
    "Output unit": "%",
    "growth": 109
  },
  {
    "Molecule": "Cc1ccc(S(=O)(=O)/C(=C\\c2ccc(Cl)cc2)C(=O)c2ccccc2)cc1",
    "Output unit": "%",
    "growth": 119
  }
]

Please turn your attention to the following entry.
Record lookup: for HS 578T breast, what growth belongs to Cn1c(=O)cc(NC(=O)CN2CCN(c3cc4c(cc3F)c(=O)c(C(=O)O)cn4C3CC3)CC2)[nH]c1=O ?
103

* * *

Quick list: growth per entry.
# System: MOLT-4 leukemia
# Assay summary: NCI-60 one-dose screen, 48 h (100 = growth as untreated, 0 = no growth, -100 = all killed)
# Conditions used: 10 µM unless noted
Compounds without any hit were thinned out: in the full panel of roughly 83,000, 20% have a hit.
# number only, unit % dropped from output

Would you please look over these solved cases?
[
  {
    "Smiles": "COc1cc(/C=N\\NC(=O)CN2CCN(c3cc4c(cc3F)c(=O)c(C(=O)N/N=C/c3cc(OC)c(OC)c(OC)c3)cn4C3CC3)CC2)cc(OC)c1OC",
    "Numeric value": 0.748
  },
  {
    "Smiles": "C=C1C(=O)O[C@H]2[C@H]1CC/C(Cn1cc(CNC(=O)/C=C/c3c[nH]c4ccccc34)nn1)=C\\CC[C@@]1(C)O[C@@H]21",
    "Numeric value": 89.5
  }
]

Please turn your attention to the following entry.
Quick check: growth of Cc1ccc(S(=O)(=O)NCCNc2nccc(-c3c(-c4cccc(N)c4)nc4sccn34)n2)cc1 ?
88

* * *

# System: LOX IMVI melanoma
# Assay summary: NCI-60 one-dose screen, 48 h (100 = growth as untreated, 0 = no growth, -100 = all killed)
# Conditions used: 10 µM unless noted
# Procedure: Growth inhibition of the LOX IMVI human tumor cell line is measured as a screen for anti-cancer activity. Cells are grown in 96 well plates and exposed to the test compound for 48 hours. Compounds are tested at a single concentration, which is 10^-5 M for most compounds. The reported endpoint is percent growth (GI% or GIPRCNT), where numbers from 0 - 100% represent growth inhibition, and numbers from -100% - 0 represent cell death. For example, a value of 40 represents 60% growth inhibition. […]
About 83,000 compounds went through this panel and 20% of them were active in at least one assay; those are over-represented in the sample as a whole.
Quick list: growth per entry.
# number only, unit % dropped from output

Would you please look over these solved cases?
[
  {
    "Molecule": "C=C[C@@H]1C[C@@H]2Cc3c(C)cc(C)cc3N1O2",
    "System under test": "LOX IMVI melanoma",
    "growth, %": 88.4
  },
  {
    "Molecule": "C=CCn1cc(-c2nc3ccccc3s2)c2cc(-c3ccc4c5c(cccc35)C(=O)N(CCN3CCNCC3)C4=O)ccc21",
    "System under test": "LOX IMVI melanoma",
    "growth, %": 77.6
  },
  {
    "Molecule": "COc1c2occc2c(OC)c2c(=O)c(-c3cc(-c4ccc(F)cc4)c(C#N)c(N)n3)c(C)oc12",
    "System under test": "LOX IMVI melanoma",
    "growth, %": 6.13
  },
  {
    "Molecule": "COc1ccc(C2=C(c3cc(OC)c(OC)c(OC)c3)C(=O)CC2)cc1",
    "System under test": "LOX IMVI melanoma",
    "growth, %": 19.6
  },
  {
    "Molecule": "O=C(Nc1ccncc1)C(=O)c1cn(S(=O)(=O)c2ccc(Cl)cc2)c2ccccc12",
    "System under test": "LOX IMVI melanoma",
    "growth, %": 42.8
  }
]

Quick check: growth of C=C[C@@H]1C[C@H](O)Cc2cc(F)ccc2N1 ?
94.2

// query: COc1ccc(C(=O)N2NC(=O)/C(=C/c3ccc(Br)cc3)N=C2c2ccccc2)cc1
87.9

// query: COc1ccc(Nc2nn3c(C)cc(C)nc3c2C(=O)Nc2ccc(C)cc2)c(OC)c1
109

* * *

# Test system: SN12C renal
# Assay summary: NCI-60 one-dose screen, 48 h
# Conditions used: 10 µM unless noted
Compounds without any hit were thinned out: in the full panel of roughly 83,000, 20% have a hit. Activity calls are given as the source filed them. Rule for the calls: active = growth percent below 10; inactive = the rest.
Classes to choose from: TRUE = active, FALSE = inactive

[
  {
    "Compound": "COc1ccc(C(=O)N2NC(=O)/C(=C/c3cn(-c4ccccc4)nc3-c3ccccc3)N=C2c2ccccc2)cc1",
    "Discrete label": "FALSE"
  },
  {
    "Compound": "COc1cc(C2CC(c3ccc4c(c3)OCO4)=NN2C=O)cc(OC)c1OC (stereo not drawn)",
    "Discrete label": "FALSE"
  },
  {
    "Compound": "COc1cc(-c2nc(-c3nc4ccc(Cl)cc4[nH]3)cc3c2[nH]c2ccccc23)cc(OC)c1OC",
    "Discrete label": "FALSE"
  },
  {
    "Compound": "COc1cc2c(cc1OCCCCCn1c3ccccc3c3ccccc31)N=C[C@@H]1CCCN1C2=O",
    "Discrete label": "TRUE"
  },
  {
    "Compound": "N#Cc1c(Nc2ccccc2)nc2n(c1=O)-c1ccccc1Sc1ccccc1-2",
    "Discrete label": "FALSE"
  }
]

// return assay outcome for COc1ccc2c(c1)NC1=C(C(=O)OC1)C2c1cc(OC)c2c(c1)OCO2 (stereo not drawn)
FALSE

// query: CCCC(=O)Oc1ccc(/C(=C(\C)c2ccccc2)c2ccc(OCCN(CC)CC)cc2)cc1
FALSE

// query: O=c1[nH]c(NCc2ccccc2)nc2nc(Nc3ccc(NC(=S)Nc4ccccc4)cc3)nc(-c3ccc(O)cc3O)c12
FALSE

// query: O=[N+]([O-])c1cc(S(=O)(=O)Oc2ccccc2)ccc1Cl
FALSE

// query: COc1cc(C2C3=C(COC3=O)Nc3cc4c(cc32)OCO4)cc2c1OCO2 (stereo not drawn)
FALSE

// query: COC(OC)c1ccccc1
FALSE

// query: Cc1ccc(S(=O)(=O)NCCNc2nccc(-c3c(-c4ccc(O)cc4)nc4sccn34)n2)cc1
FALSE

// query: COc1ccc(-c2nc(SCCC(C)C)nc(Nc3ccc(F)c(Cl)c3)c2C#N)cc1
FALSE

* * *

# Tested on: MDA-MB-435 melanoma
# Assay summary: NCI-60 one-dose screen, 48 h (100 = growth as untreated, 0 = no growth, -100 = all killed)
# Conditions used: 10 µM unless noted
# Experimental: Growth inhibition of the MDA-MB-435 human Melanoma tumor cell line is measured as a screen for anti-cancer activity. Cells are grown in 96 well plates and exposed to the test compound for 48 hours. Compounds are tested at a single concentration, which is 10^-5 M for most compounds. The reported endpoint is percent growth (GI% or GIPRCNT), where numbers from 0 - 100% represent growth inhibition, and numbers from -100% - 0 represent cell death. […]
This is part of a sample that, as a whole, favours compounds with a hit. Of some 83,000 tested, about 20% had one in any assay.
Quick list: growth per entry.
# number only, unit % dropped from output

Would you please look over these solved cases?
[
  {
    "Smiles": "Cc1cc(N/N=C/c2nc(-c3ccc(Br)cc3)oc2C)c2cc(Cl)ccc2n1",
    "System under test": "MDA-MB-435 melanoma",
    "Output unit": "%",
    "growth": 16.8
  },
  {
    "Smiles": "COc1ccc(Nc2ncccc2C(=O)NCc2cn(Cc3cccc(Oc4ccccc4)c3)nn2)c(OC)c1",
    "System under test": "MDA-MB-435 melanoma",
    "Output unit": "%",
    "growth": -24.2
  },
  {
    "Smiles": "CC(C)(C)n1cc(-c2ccnc(NCCCNS(=O)(=O)c3cccc(F)c3)c2)c(-c2cccc(O)c2)n1",
    "System under test": "MDA-MB-435 melanoma",
    "Output unit": "%",
    "growth": 61.2
  },
  {
    "Smiles": "O=S(=O)(NCCCNc1nccc(-n2ccc3cccnc32)n1)c1cccc(C(F)(F)F)c1",
    "System under test": "MDA-MB-435 melanoma",
    "Output unit": "%",
    "growth": 108
  }
]

Please turn your attention to the following entry.
Record lookup: for MDA-MB-435 melanoma, what growth belongs to Cc1cc(C(C)(C)C)ccc1S ?
111
